targetUnderTest: HLA-A*0101 (human)
measurementProtocol: competition with 125I-labelled standard peptide 944.02 ([..]) for purified HLA-A*0101, gel filtration
Task for the reader: assign each of the following binders its reported binding affinity ratio (IC50 of standard peptide / IC50 of test peptide).
One number for each entry.

- binder: "AVCDKCLKFY (modifications not checked) [HPV16 E6 68 …]"
  reportedMeasurement: 0.0095

For every item in the list below, what is its measured binding affinity ratio (IC50 of standard peptide / IC50 of test peptide)?
1. DTPTLHEY (modifications not checked) [HPV16 E7 4 DTPTLHEY]
2. CIVYRDGNPY (modifications not checked) [HPV16 E6 58 …]
3. GTTLEQQY (modifications not checked) [HPV16 E6 92 GTTLEQQY]

0.0002
0.0015
0.0006
